These measurements were taken from paper PMC4286029.

Molecular target: KDR (Homo sapiens, UniProt P35968)
Construct: purchased Millipore Co. Ltd. (KinaseProfiler service)
Sequence (P35968 20-1356, species assumed): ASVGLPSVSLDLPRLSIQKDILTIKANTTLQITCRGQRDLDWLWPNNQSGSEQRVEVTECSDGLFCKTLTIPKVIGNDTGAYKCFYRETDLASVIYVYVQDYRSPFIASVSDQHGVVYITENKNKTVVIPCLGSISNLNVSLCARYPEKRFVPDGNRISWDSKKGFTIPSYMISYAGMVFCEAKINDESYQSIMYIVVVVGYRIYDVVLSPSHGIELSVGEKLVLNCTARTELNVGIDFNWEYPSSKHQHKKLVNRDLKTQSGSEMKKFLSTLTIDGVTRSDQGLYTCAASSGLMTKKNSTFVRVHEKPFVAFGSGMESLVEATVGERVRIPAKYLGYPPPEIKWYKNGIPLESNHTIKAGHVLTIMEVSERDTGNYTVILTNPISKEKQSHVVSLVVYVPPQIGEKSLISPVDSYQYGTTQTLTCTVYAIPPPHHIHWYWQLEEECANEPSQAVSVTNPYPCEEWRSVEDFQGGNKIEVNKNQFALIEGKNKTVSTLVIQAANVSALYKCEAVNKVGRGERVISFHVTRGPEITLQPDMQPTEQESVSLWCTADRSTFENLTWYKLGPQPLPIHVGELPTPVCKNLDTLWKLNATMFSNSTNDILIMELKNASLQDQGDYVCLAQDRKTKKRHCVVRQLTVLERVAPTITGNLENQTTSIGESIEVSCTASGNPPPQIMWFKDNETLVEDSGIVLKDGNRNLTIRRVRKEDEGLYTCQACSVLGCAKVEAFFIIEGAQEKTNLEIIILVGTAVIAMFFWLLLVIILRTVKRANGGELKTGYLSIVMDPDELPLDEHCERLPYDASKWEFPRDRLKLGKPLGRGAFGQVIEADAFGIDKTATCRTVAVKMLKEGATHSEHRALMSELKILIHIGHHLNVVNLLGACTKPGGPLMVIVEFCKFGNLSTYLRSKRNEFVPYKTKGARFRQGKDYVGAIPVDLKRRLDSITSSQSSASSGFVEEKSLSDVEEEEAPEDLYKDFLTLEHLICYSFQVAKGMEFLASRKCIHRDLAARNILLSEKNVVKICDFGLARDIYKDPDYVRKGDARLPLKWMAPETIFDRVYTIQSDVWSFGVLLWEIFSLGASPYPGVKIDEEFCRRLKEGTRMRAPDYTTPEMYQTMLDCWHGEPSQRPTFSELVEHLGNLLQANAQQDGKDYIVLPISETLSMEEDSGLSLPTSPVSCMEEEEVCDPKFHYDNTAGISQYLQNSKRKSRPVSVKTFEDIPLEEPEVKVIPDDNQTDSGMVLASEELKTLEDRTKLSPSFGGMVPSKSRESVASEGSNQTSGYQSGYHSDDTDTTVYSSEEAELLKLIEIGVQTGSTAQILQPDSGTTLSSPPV
Experiment: KinaseProfiler selectivity: KDR
Type: biochemical
value kind: IC50

Would you mind telling me what IC50 value was observed for C[C@H]1CN(C(=O)CC#N)[C@]12CCN(c1ncnc3[nH]ccc13)C2 [JTE-052] ? > 1000 nM

----------
Molecular target: MAPKAP-K2 (Homo sapiens)
Sequence (P49137 whole entry, species assumed): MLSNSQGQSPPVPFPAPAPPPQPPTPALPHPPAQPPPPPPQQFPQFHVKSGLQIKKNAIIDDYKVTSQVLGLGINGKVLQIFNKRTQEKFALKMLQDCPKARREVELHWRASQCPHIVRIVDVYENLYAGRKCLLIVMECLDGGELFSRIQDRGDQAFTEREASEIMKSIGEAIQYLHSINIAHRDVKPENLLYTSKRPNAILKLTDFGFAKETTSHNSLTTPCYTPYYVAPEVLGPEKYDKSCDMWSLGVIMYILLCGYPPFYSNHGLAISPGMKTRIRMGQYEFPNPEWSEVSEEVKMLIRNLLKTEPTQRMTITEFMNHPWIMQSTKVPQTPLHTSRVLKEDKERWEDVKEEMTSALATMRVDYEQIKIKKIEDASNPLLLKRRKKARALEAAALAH
value kind: IC50

Checklist item: IC50 tested on MAPKAP-K2 (Homo sapiens), entry C[C@H]1CN(C(=O)CC#N)[C@]12CCN(c1ncnc3[nH]ccc13)C2 , value? > 1000 nM
